Test: Cytotoxicity, resazurin/resorufin (CellTiter-Blue)
Type: cell-based
Settings: human, HeLa cells
readout name: pIC50
Reminder that pIC50 means the negative base-10 logarithm of the concentration expressed in mol/L.

Note down pIC50 recorded for O=C(O)c1ccc(O)c2ncccc12 [SID 85736331, 5-carboxy-8-hydroxyquinoline]
3.54

* * *

Target: JMJD2E (Homo sapiens, UniProt B2RXH2)
Test: JMJD2E FDH-coupled assay under low and high iron conditions (iron chelation profile)
Assay type: biochemical
Parameters: The catalytic domain of human JMJD2E (residues 1–337); His6 (N); made in house; host or cells: E. coli
Details: Table S1; low iron 2.5 µM FAS; unit not in table, from Figure 2; read-out: qHTS Data: jmjd2e fas2.5um IC50
readout name: pIC50
To interpret pIC50, take it as minus log10 of a concentration measured in moles per litre.

compound	pIC50
CCOC(=O)C1CCN(Cc2ccc(O)c3ncccc23)CC1 [compound 850072]	5.35
COc1cc(/C=N/Nc2nncn2N)ccc1OCc1c(C)no[n+]1[O-] [compound 26657989]	5.35
O=C(OCC1O[C@@H](OC(=O)c2cc(O)c(O)c(O)c2)[C@@H](OC(=O)c2cc(O)c(O)c(O)c2)[C@@H](OC(=O)c2cc(O)c(O)c(O)c2)[C@@H]1OC(=O)c1cc(O)c(O)c(O)c1)c1cc(O)c(O)c(O)c1 (stereo partly drawn) [compound 22405492]	5.95

Query pIC50 for CC(C)c1ccccc1NC(=O)CNCCc1ccc(C(F)(F)F)cc1.O=C(O)C(=O)O [compound 26661422]
4.55

Give pIC50 for the following compound: Cc1cc(C(=O)NNC(=S)Nc2ccccc2)nn1C [compound 24796479]
5.15

Determine from records and report pIC50 for CNCCc1ccc(O)c(O)c1.Cl [compound 50106160]
5.35

* * *

Biological target: JMJD2E (Homo sapiens, UniProt B2RXH2)
Test: JMJD2E FDH-coupled assay under low and high iron conditions (iron chelation profile)
Format: biochemical
Set-up: The catalytic domain of human JMJD2E (residues 1–337); His6 (N); made in house; host or cells: E. coli
Conditions: Table S1; low iron 2.5 µM FAS; unit not in table, from Figure 2; read-out: qHTS Data: jmjd2e fas2.5um IC50
readout name: log10 of IC50 (log10 of the value in µM)
Values are log10 of IC50 in µM.

molecule	quantitative result
O=C(O)c1cccc(C(=O)O)n1 [compound 863941]	0.45
CN[C@@H](C)[C@H](O)c1ccccc1.CN[C@@H](C)[C@H](O)c1ccccc1.O=S(=O)(O)O [compound 50106282]	0.35
CCOc1cccc(C(=O)c2ccc(O)c(O)c2O)c1 [compound 26749554]	0.65

Next molecule, please.
Let me know recorded log10 of IC50 for O=Cc1ccc(O)c2ncccc12 [compound 26664581] , thanks.
0.85

* * *

Molecular target: JMJD2E (Homo sapiens)
Sequence (B2RXH2 1-337): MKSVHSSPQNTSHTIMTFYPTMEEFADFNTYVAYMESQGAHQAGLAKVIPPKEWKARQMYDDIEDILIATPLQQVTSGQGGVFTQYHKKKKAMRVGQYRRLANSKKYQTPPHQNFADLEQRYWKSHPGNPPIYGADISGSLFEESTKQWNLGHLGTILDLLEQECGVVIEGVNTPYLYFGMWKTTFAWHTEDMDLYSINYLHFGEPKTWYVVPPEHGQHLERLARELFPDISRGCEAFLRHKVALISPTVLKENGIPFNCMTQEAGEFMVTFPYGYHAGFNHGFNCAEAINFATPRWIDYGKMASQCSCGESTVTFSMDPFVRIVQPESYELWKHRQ
Assay: JMJD2E FDH-coupled assay under low and high iron conditions (iron chelation profile)
Assay type: biochemical
Set-up: The catalytic domain of human JMJD2E (residues 1–337); His6 (N); made in house; host or cells: E. coli
Details: Table S1; high iron
readout name: qHTS Data: jmjd2e fas20um CurveClass

Some entries whose results are on file:
compound	result
CCOc1c(Cl)cc(CNc2ccc(N3CCCC3)cc2)cc1OC [compound 24795526]	Poor quality curve
O=c1cnnc(N/N=C/c2ccccn2)[nH]1 [compound 26726276]	Inactive
Oc1cc(O)c2c(c1)OC(c1cc(O)c(O)c(O)c1)C(O)C2 (stereo not drawn) [compound 26749553]	Poor quality curve
O=C(NC(=S)NNC(=O)c1ccccc1O)c1ccco1 [compound 17504924]	Inactive
C[C@@H]1Cc2c(O)c(O)cc(O)c2C(=O)O1 [compound 26657786]	Inactive

Give the measured qHTS Data: jmjd2e fas20um CurveClass for O=Cc1ccc(O)c2ncccc12 [compound 26664581]
Poor quality curve

Specify measured qHTS Data: jmjd2e fas20um CurveClass for O=C(CSc1ncn[nH]1)CSc1ncn[nH]1 [compound 24783149] .
Inactive

Identify measured qHTS Data: jmjd2e fas20um CurveClass associated with COc1cc(/C=N/Nc2nncn2N)ccc1OCc1c(C)no[n+]1[O-] [compound 26657989]
Inactive

Tell us which qHTS Data: jmjd2e fas20um CurveClass value is on record for Oc1ccc(CN2CCCc3ccccc32)c2cccnc12 [compound 4249321]
Inactive

Identify measured qHTS Data: jmjd2e fas20um CurveClass associated with CC(C)c1ccccc1NC(=O)CNCCc1ccc(C(F)(F)F)cc1.O=C(O)C(=O)O [compound 26661422]
Inactive

Tell me its qHTS Data: jmjd2e fas20um CurveClass given O=c1c(O)c(-c2cc(O)c(O)c(O)c2)oc2cc(O)cc(O)c12 [compound 11111488] as the entry.
Poor quality curve

Return qHTS Data: jmjd2e fas20um CurveClass for the following compound: COC(=O)c1ccc(=O)c2nc3/c(=C/O)c(O)cc(=O)c3[nH]c12 [compound 26732584]
Inconclusive

Name the recorded qHTS Data: jmjd2e fas20um CurveClass of the compound listed here: CN(N=O)c1ccc(O)c(O)c1 [compound 50106719]
Inactive

State its qHTS Data: jmjd2e fas20um CurveClass for this compound: COc1ccc(N2C(=O)CC(Sc3ncn[nH]3)C2=O)c(OC)c1 (stereo not drawn) [compound 7974422]
Poor quality curve
